Data credit: patent US12396985B2

Assay: aqueous solubility of the compound of Chemical Formula 1
Format: physicochemical
Conditions: aqueous solution, aqueous buffer; at pH 3
REPORTED_ENDPOINT: solubility

Fill in: solubility of "Cc1cccc(-c2[nH]c(CNc3ccccc3F)nc2-c2ccc3ncnn3c2)n1" is ___
~1000 µg/mL

---

Experiment: aqueous solubility of the compound of Chemical Formula 1
Assay type: physicochemical
Settings: 25 °C, water, thermodynamic from solid; saturated aqueous solution at 25±3° C., pH 7.2
REPORTED_ENDPOINT: solubility

Fill in: solubility of "Cc1cccc(-c2[nH]c(CNc3ccccc3F)nc2-c2ccc3ncnn3c2)n1" is ___
< 20 µg/mL
